- SYSTEM NAME: Dimer of Gag-Pol polyprotein [501-599,Q508K,L534I,L564I,C568A,C596A] (Human immunodeficiency virus 1, UniProt P03367, C568A/C596A/L534I/L564I/Q508K)
- Construct: 501-599
- MEASUREMENT DESCRIPTION: Protease Inhibition Assay
- EXPERIMENTAL CONTEXT: pH 6.4; 25 °C
PROPERTY MEASURED: Ki (nM)
Output spec: scalar in nM, unitless text.

Returns the measured Ki for the input compound. Input: `COc1ccc(S(=O)(=O)N(CC(C)C)C[C@@H](O)[C@@H]2CCCC/C=C\COc3c(O)cccc3C(=O)N2)cc1`
2
